The molecules below have reported pIC50 for β2AR (β2AR stable cells) (Homo sapiens).
Friendly reminder that pIC50 comes from taking -log10 of the concentration in mol/L.

{"columns": ["molecule", "tgt", "pIC50"],
 "data": [
  ["CC(CCc1ccccc1)NC(C)C(O)c1ccc(O)cc1 (centres unmarked)", "β2AR (β2AR stable cells) (Homo sapiens)", 6.60],
  ["CC(CCc1ccc(O)cc1)NCCc1ccc(O)c(O)c1 (centres unmarked)", "β2AR (β2AR stable cells) (Homo sapiens)", 5.30],
  ["CCCCNCC(O)c1ccc(O)cc1 (centres unmarked)", "β2AR (β2AR stable cells) (Homo sapiens)", 4.50],
  ["CC(NCCc1ccc(O)cc1)C(O)c1ccc(O)cc1 (centres unmarked)", "β2AR (β2AR stable cells) (Homo sapiens)", 5.90]
]}

Attention now shifts to the item below.
For this molecule ( Oc1ccc(CC2NCCc3cc(O)c(O)cc32)cc1 (centres unmarked) ), measured pIC50 is 5.30
